- Assay System: NaV1.3 (Homo sapiens)
- Construct: expressed in transfected cells; host or cells: HEK293
- Assay Method Text: VIPR optical membrane potential assay with electrical stimulation, NaV1.3
- Format: cell-based
- Experimental Setup: Table 9, NaV 1.3 receptors
- Protocol: Antagonist properties of test compounds were assessed as follows. Cells expressing the NaV of interest were placed into microtiter plates. […] The cells were stimulated with either chemical or electrical means to evoke a NaV dependent membrane potential change from unblocked channels, which was detected and measured with trans-membrane potential-sensitive dyes. Antagonists were detected as a decreased membrane potential response to the stimulus. […]
pIC50: −log10 of the molar value.
A collection of compounds and their measured pIC50

Observe how each entry below is paired with its result.
COc1cccc(CN(C(=O)c2cnc(N3CCOCC3)nc2-c2ccccc2F)C(C)C)c1 [compound 74]: 5.00 to 5.70
CC1CC(C)CN(C(=O)c2cnc(NCCc3cccc(F)c3)nc2-c2ccc(C#N)cc2)C1 (stereo not shown) [compound 220]: < 5.00
CC(C)N(C(=O)c1cnc(N2CCOCC2)nc1-c1ccccc1F)c1cccc(C(C)(C)C)c1 [compound 165]: 5.00 to 5.70

Enquiry: Retrieve pIC50 measured for CC(C)N(Cc1ccccc1)C(=O)c1cnc(N2CCOCC2)nc1-c1ccccc1F [compound 326] and print it.
Return: < 5.00

====

- Assay System: CaV2.2 (Homo sapiens, UniProt Q00975)
- Sequence (Q00975 whole entry): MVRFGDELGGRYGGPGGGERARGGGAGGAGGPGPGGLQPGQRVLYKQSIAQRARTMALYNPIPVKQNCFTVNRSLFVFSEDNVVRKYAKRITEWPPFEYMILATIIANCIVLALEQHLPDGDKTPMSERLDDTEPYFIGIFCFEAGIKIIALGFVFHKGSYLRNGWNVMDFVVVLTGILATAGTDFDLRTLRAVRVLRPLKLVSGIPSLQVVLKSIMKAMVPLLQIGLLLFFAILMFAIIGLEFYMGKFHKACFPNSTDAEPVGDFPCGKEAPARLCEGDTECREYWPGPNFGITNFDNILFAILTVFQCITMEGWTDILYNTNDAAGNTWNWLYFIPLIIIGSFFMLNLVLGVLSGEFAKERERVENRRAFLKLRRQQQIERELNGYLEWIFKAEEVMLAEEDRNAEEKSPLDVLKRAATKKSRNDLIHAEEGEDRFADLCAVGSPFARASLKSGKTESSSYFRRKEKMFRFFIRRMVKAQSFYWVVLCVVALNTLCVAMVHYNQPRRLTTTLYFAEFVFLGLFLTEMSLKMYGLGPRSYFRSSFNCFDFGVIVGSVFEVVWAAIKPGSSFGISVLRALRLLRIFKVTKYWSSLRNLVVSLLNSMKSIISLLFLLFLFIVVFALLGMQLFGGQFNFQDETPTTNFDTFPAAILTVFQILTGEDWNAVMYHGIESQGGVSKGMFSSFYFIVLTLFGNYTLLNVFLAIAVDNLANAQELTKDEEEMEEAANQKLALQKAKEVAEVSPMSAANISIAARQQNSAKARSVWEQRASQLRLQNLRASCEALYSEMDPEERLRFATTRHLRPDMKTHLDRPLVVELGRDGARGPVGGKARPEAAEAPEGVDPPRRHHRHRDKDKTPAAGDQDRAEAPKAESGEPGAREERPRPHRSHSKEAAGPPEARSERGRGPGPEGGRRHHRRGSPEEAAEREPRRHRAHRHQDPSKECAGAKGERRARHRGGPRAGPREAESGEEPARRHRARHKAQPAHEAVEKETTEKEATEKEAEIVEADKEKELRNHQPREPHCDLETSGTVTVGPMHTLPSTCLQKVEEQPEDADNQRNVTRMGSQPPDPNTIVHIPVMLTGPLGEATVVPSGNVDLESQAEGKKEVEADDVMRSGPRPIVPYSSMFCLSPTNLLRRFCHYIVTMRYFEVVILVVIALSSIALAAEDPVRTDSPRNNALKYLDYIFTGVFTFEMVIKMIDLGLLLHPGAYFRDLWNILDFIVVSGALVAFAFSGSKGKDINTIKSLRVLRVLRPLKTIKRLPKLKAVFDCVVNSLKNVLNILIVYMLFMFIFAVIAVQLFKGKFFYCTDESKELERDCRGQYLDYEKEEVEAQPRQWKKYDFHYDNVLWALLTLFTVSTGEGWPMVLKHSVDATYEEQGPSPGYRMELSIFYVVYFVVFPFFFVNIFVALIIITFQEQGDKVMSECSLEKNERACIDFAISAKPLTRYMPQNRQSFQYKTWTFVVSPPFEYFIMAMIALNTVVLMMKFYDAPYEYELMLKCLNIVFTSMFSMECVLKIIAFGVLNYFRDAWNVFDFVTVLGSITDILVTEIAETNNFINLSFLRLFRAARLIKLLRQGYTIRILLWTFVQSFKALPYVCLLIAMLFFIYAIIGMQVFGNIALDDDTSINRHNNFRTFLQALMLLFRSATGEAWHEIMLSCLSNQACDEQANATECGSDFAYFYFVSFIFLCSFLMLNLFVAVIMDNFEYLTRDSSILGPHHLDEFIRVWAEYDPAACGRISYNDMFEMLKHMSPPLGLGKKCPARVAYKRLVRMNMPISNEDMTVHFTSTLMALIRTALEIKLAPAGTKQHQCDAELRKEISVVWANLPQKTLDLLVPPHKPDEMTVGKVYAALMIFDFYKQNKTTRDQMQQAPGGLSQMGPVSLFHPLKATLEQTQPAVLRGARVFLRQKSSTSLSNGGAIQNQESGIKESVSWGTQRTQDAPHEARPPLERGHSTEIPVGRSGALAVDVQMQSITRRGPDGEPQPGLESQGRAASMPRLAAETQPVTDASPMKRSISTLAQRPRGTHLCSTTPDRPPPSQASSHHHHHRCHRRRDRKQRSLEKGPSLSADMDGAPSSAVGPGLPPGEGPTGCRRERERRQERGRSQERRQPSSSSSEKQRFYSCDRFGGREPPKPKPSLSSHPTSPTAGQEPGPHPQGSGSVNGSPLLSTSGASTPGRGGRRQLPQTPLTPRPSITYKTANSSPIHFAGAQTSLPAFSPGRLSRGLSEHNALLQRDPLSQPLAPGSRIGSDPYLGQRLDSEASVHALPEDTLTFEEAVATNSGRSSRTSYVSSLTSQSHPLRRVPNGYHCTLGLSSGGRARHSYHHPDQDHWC
- Sequence (P54284 whole entry partner): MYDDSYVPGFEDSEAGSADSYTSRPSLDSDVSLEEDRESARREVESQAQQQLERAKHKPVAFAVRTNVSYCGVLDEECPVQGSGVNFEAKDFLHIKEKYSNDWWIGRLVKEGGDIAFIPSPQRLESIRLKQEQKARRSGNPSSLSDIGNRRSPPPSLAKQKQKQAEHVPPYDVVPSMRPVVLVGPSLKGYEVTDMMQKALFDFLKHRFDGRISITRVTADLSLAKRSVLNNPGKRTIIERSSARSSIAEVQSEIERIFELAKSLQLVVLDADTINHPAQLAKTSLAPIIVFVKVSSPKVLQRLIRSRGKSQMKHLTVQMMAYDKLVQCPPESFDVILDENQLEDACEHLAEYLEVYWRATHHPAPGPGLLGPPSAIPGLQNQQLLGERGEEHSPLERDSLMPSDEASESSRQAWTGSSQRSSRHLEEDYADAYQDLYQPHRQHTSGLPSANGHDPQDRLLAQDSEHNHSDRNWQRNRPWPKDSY
- Sequence (P54289 25-956 partner limits assumed): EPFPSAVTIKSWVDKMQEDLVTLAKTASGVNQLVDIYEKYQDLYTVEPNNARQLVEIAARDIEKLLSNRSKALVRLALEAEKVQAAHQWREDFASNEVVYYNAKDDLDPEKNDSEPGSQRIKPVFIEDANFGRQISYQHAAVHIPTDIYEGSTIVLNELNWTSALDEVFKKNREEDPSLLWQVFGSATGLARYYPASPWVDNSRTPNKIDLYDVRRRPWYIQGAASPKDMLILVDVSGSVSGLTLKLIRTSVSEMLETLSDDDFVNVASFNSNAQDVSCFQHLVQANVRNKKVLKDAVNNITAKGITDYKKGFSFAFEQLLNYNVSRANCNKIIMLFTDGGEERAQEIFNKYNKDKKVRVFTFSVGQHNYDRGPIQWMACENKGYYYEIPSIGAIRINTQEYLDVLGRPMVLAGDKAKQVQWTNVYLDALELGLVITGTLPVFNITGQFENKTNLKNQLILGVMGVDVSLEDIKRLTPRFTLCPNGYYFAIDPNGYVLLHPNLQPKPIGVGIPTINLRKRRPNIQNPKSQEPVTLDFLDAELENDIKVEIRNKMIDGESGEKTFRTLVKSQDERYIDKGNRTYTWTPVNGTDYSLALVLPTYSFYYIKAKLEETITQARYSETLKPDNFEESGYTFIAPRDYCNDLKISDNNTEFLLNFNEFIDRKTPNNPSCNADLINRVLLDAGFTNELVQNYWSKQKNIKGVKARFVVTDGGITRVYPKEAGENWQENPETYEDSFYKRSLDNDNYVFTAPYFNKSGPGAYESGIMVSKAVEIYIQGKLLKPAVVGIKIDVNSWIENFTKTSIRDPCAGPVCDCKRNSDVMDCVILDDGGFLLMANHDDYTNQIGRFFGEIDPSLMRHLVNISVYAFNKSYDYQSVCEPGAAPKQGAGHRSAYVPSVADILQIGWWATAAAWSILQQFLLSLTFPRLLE
- Sequence (P54289 957-1103 partner limits assumed): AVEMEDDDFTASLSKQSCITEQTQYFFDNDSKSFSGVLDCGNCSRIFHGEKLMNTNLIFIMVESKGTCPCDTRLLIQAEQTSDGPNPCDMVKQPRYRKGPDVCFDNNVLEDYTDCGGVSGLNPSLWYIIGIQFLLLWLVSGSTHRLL
- Assay Method Text: VIPR optical membrane potential assay with electrical stimulation, CaV2.2
- Experimental Setup: Table 9, CaV 2.2 receptors
pIC50: −log10 of the molar value.
Measurement Label: pIC50

CC(C)CN(C)C(=O)c1cnc(N2CCCCC2)nc1-c1ccc(C#N)cc1 [compound 322]: < 5.00

Enquiry: Complete the entry with pIC50 for O=C(c1cnc(N2CCOCC2)nc1-c1ccccc1F)N(Cc1ccncc1)C1CC1 [compound 205]
Return: < 5.00

Enquiry: Provide only the value of recorded pIC50 for CC(=O)N1CCN(c2ncc(C(=O)N3CCCCC3)c(-c3ccc(-c4ccccc4)cc3)n2)CC1 [compound 278]
Return: 5.00 to 5.70

====

- Assay System: NaV1.3 (Homo sapiens)
- Construct: expressed in transfected cells; host or cells: HEK293
- Assay Method Text: VIPR optical membrane potential assay with electrical stimulation, NaV1.3
- Format: cell-based
- Experimental Setup: Table 9, NaV 1.3 receptors
- Experimental: Antagonist properties of test compounds were assessed as follows. Cells expressing the NaV of interest were placed into microtiter plates. […] The cells were stimulated with either chemical or electrical means to evoke a NaV dependent membrane potential change from unblocked channels, which was detected and measured with trans-membrane potential-sensitive dyes. Antagonists were detected as a decreased membrane potential response to the stimulus. […]
pIC50: −log10 of the molar value.
Listed below: pIC50 values for each entry.

CC(C)N(C(=O)c1cnc(N2CCC3CCCCC3C2)nc1-c1ccccc1F)C1CCSC1 (stereo not shown) [compound 141]: < 5.00
CCN(C)c1ncc(C(=O)N2CC(C)CC(C)C2)c(-c2ccc(C#N)cc2)n1 (stereo not shown) [compound 347]: < 5.00
COc1ccc(CN(C(=O)c2cnc(N3CCCCC3)nc2-c2ccccc2Cl)C2CC2)cc1 [compound 36]: 5.00 to 5.70

Enquiry: Consider the molecule CC(C)N(Cc1ccccc1)C(=O)c1cnc(Nc2ccc(Cl)cc2)nc1-c1ccccc1F [compound 207] and give its recorded pIC50.
Return: < 5.00

====

// reported IC50 for each item listed
- Assay System: CaV2.2 (Homo sapiens, UniProt Q00975)
- Construct: expressed in transfected cells; host or cells: HEK293
- Assay Method Text: VIPR optical membrane potential assay with electrical stimulation, CaV2.2
- Type: cell-based
- Experimental Setup: Table 9, CaV 2.2 receptors

Below are worked cases with known answers.
CCC(C)Nc1ncc(C(=O)N(C)CC)c(-c2cccc(C)c2)n1 (stereo not shown): > 10 µM
CC(C)N(Cc1ccc2c(c1)OCO2)C(=O)c1cnc(N2CCC3CCCCC3C2)nc1-c1ccccc1F (stereo not shown): < 2 µM
O=C(c1cnc(N2CCOCC2)nc1-c1ccccc1F)N(Cc1ccc(C(F)(F)F)cc1)C1CC1: 2 to 10 µM

Enquiry: Please report the measured IC50 for CCC(C)NC(=O)c1cnc(N(C)CC(C)C)nc1-c1ccc(C#N)cc1 (stereo not shown) tested on CaV2.2 (Homo sapiens, UniProt Q00975).
Return: > 10 µM

Enquiry: Fill: IC50 (CaV2.2 (Homo sapiens, UniProt Q00975)) for this compound CCCCNc1ncc(C(=O)N2CC(C)CC(C)C2)c(-c2ccc(C#N)cc2)n1 (stereo not shown)
Return: > 10 µM

====

- Assay System: NaV1.3 (Homo sapiens, UniProt Q9NY46)
- Construct: expressed in transfected cells; host or cells: HEK293
- Assay Method Text: VIPR optical membrane potential assay with electrical stimulation, NaV1.3
- Type: cell-based
- Experimental Setup: Table 9, NaV 1.3 receptors
- Procedure: Antagonist properties of test compounds were assessed as follows. Cells expressing the NaV of interest were placed into microtiter plates. […] The cells were stimulated with either chemical or electrical means to evoke a NaV dependent membrane potential change from unblocked channels, which was detected and measured with trans-membrane potential-sensitive dyes. Antagonists were detected as a decreased membrane potential response to the stimulus. […]
Measurement Label: IC50

Example entries and their recorded answers appear below.
O=C(NCCCc1ccccc1)c1cnc(N2CCOCC2)nc1-c1ccc(Oc2ccccc2)cc1: > 10 µM
COCCCNc1ncc(C(=O)N2CCCCC2)c(-c2cccc(C)c2)n1: > 10 µM
O=C(c1cnc(N2CCOCC2)nc1-c1ccccc1F)N(Cc1ccccc1)C1CCCC1: 2 to 10 µM
O=C(c1cnc(N2CCOCC2)nc1-c1ccccc1F)N(Cc1ccccc1)C1CCC1: 2 to 10 µM
CC(C)N(Cc1ccccc1)C(=O)c1cnc(N2CCOCC2)nc1-c1ccc(F)c(F)c1: > 10 µM
COc1cccc(CN(C(=O)c2cnc(NC(C)c3ccccc3)nc2-c2ccccc2F)C(C)C)c1 (centres unmarked): < 2 µM
CC1CC(C)CN(C(=O)c2cnc(N3CCOCC3)nc2-c2ccccc2F)C1 (centres unmarked): > 10 µM
CC(C)N(Cc1ccccc1)C(=O)c1cnc(NCCc2cccc(C(F)(F)F)c2)nc1-c1ccccc1F: 2 to 10 µM

Enquiry: Fill in IC50 for record `CC(C)N(C(=O)c1cnc(N2CCCCC2)nc1-c1ccccc1Cl)c1cccc(C#N)c1`
Return: 2 to 10 µM

Enquiry: Look up and state reported IC50 for `CCN(C)c1ncc(C(=O)N(C)C2CCCCC2)c(-c2ccc(C#N)cc2)n1`
Return: > 10 µM

Enquiry: Give recorded IC50. `COc1cccc(CN(C(=O)c2cnc(N3CCOCC3)nc2-c2ccccc2F)C2CC2)c1`
Return: > 10 µM

====

- Assay System: CaV2.2 (Homo sapiens)
- Assay Method Text: VIPR optical membrane potential assay with electrical stimulation, CaV2.2
- Experimental Setup: Table 9, CaV 2.2 receptors
pIC50: −log10 of the molar value.
Reported pIC50 values are given for each entry in this list.

Solved cases (3 shown):
CCC(COC)N(Cc1ccccc1)C(=O)c1c(C)nc(N2CCOCC2)nc1-c1ccccc1F (stereo not shown) [compound 49]: < 5.00
O=C(c1cnc(N2CCSCC2)nc1-c1ccccc1F)N1Cc2ccccc2C1 [compound 206]: < 5.00
CN1CCN(c2ncc(C(=O)N(Cc3ccccc3)C3CCC3)c(-c3ccccc3F)n2)CC1 [compound 180]: 5.00 to 5.70

Enquiry: Name the recorded pIC50 of the compound listed here: CCN(Cc1ccccc1)C(=O)c1cnc(NCCCOC)nc1-c1ccccc1F [compound 327]
Return: < 5.00

====

- Assay System: CaV2.2 (Homo sapiens)
- Construct: expressed in transfected cells; host or cells: HEK293
- Assay Method Text: VIPR optical membrane potential assay with electrical stimulation, CaV2.2
- Assay type: cell-based
- Experimental Setup: Table 9, CaV 2.2 receptors
Reported IC50 by item:

Cc1nc(N2CCOCC2)nc(-c2ccccc2F)c1C(=O)N(Cc1ccc(C(C)(C)C)cc1)C(C)C: 2 to 10 µM
COCCNc1ncc(C(=O)N2CC(C)CC(C)C2)c(-c2cccc(C)c2)n1 (centres unmarked): > 10 µM
CC(C)N(Cc1ccccc1)C(=O)c1cnc(N2CCN(C)CC2)nc1-c1ccccc1F: > 10 µM
CC(C)N(Cc1ccccc1)C(=O)c1cnc(N2Cc3ccccc3C2)nc1-c1ccccc1F: 2 to 10 µM
COc1cccc(CN(C(=O)c2cnc(N3CCCCC3)nc2-c2ccccc2F)C(C)C)c1: < 2 µM

Enquiry: # return recorded IC50 for input `O=C(c1cnc(N2CCSCC2)nc1-c1ccccc1F)N(Cc1ccc(C(F)(F)F)cc1)C1CC1`
Return: > 10 µM

Enquiry: Specify IC50 for `COc1cccc(CN(C(=O)c2cnc(N3CCOCC3)nc2-c2ccccc2F)C(C)C)c1` and stop.
Return: 2 to 10 µM

Enquiry: Item `O=C(c1cnc(N2CCOCC2)nc1-c1ccccc1F)N(Cc1cccc(-c2ccncc2)c1)C1CC1` : provide IC50
Return: 2 to 10 µM

Enquiry: Let me know recorded IC50 for `C=CCN(CC=C)c1ncc(C(=O)N(Cc2ccccc2)C(C)C)c(-c2ccccc2F)n1` , thanks.
Return: < 2 µM

Enquiry: Look up and state reported IC50 for CC1COc2ccccc2N1C(=O)c1cnc(N2CCOCC2)nc1-c1ccccc1F (centres unmarked)
Return: > 10 µM

Enquiry: Please report the measured IC50 for `O=C(c1cnc(N2CCOCC2)nc1-c1ccccc1F)N1CCCC1`
Return: > 10 µM
